subjectOfTest: Solute carrier family 22 member 2 (Homo sapiens, UniProt O15244)
Sequence (O15244 whole entry): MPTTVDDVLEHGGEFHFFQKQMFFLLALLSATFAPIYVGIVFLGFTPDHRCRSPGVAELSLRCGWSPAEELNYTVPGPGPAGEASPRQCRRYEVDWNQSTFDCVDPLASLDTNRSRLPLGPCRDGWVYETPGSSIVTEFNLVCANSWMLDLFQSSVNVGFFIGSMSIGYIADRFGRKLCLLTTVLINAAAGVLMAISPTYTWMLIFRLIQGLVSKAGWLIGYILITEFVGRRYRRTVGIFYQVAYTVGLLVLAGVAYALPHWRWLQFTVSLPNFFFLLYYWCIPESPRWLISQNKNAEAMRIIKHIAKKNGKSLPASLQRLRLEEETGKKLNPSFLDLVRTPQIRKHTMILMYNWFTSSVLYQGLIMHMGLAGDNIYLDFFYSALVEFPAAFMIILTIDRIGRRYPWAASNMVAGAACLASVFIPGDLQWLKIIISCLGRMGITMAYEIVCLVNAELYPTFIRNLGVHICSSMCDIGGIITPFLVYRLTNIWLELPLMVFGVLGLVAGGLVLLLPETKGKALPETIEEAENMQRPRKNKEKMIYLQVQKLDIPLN
testName: Inhibition of human OCT2 expressed in MDCK2 cells using [14C]metformin as substrate by liquid scintillation counting analysis
measure: pIC50
Answers are plain numbers, as −log10 of the molar value.

Value of measured pIC50 for the entry C[C@@H]1CCO[C@H]2Cn3cc(C(=O)NCc4ccc(F)cc4F)c(=O)c(O)c3C(=O)N12 [DOLUTEGRAVIR] : 5.72

====

subjectOfTest: ATP-dependent translocase ABCB1 (Homo sapiens)
Sequence (P08183 whole entry): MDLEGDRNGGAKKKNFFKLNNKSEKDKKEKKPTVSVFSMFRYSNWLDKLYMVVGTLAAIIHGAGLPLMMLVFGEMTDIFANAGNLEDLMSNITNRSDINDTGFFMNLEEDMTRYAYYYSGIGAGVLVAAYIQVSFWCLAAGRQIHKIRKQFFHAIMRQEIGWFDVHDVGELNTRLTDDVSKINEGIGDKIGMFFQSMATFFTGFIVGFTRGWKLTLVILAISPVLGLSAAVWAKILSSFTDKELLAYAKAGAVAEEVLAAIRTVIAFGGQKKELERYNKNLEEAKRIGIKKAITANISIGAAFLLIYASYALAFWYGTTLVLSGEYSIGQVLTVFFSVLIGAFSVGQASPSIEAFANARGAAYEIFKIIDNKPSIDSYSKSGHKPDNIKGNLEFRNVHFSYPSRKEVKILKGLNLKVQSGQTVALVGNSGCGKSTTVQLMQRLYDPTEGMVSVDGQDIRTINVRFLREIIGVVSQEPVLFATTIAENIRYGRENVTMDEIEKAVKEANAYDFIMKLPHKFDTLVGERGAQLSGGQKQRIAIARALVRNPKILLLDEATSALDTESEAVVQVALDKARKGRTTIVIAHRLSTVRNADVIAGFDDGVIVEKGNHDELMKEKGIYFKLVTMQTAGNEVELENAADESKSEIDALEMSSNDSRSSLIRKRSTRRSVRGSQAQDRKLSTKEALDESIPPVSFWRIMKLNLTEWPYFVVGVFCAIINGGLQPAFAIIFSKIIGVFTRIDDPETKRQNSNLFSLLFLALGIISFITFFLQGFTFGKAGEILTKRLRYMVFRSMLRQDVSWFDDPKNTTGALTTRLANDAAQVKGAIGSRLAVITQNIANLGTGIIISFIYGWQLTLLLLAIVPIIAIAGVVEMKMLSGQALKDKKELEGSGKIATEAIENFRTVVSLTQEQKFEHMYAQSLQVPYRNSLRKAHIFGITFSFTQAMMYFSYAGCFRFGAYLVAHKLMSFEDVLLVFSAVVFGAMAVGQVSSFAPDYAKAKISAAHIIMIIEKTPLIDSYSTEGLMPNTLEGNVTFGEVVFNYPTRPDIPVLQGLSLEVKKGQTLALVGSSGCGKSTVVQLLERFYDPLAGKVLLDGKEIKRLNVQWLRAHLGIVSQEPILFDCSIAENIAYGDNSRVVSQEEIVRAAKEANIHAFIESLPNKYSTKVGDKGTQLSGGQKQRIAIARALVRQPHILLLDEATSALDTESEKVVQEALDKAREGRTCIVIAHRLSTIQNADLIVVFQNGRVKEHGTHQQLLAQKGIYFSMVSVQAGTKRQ
testName: Inhibition of human MDR1
Type: ADME
measure: IC50

get_value(item= C[C@@H]1CCO[C@H]2Cn3cc(C(=O)NCc4ccc(F)cc4F)c(=O)c(O)c3C(=O)N12 , readout=IC50) returns > 90 µM
